- TARGET ENTITY: NGF (nerve growth factor) (Homo sapiens, UniProt P01138 P01138:122-241)
- Sequence (P01138 122-241, one chain of several): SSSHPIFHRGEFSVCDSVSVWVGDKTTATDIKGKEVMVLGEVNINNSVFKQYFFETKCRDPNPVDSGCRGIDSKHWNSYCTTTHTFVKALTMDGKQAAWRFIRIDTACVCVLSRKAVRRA
- ASSAY EXPLANATION: cell_activity; neurite; TF-1 0.03
- CONDITION LABEL: tags: R&D Systems; chain copies: 2
RECORDED ENDPOINT: IC50 (nM)

>>> value_reported("GGGUCCUGGCUAAGAGUUUCCGUCUCGUAGUCUGUUACCC (ssRNA, 2'-OMe G (G8,G34 2'-OH), dA, 2'-F C/U; 5',3' idT) [SEQ ID NO: 80(1)]")
0.271
